Origin of the recorded values: ChEMBL document CHEMBL4706606

# IC90 values compiled below
Test system: Trypanosoma cruzi
Protocol: Antitrypanosomal activity against Trypanosoma cruzi Tulahuen strain C2C4 amastigotes infected in rat L6 cells assessed as inhibition of parasite growth incubated for 96 hrs by chlorophenol red-fl-D-galactopyranoside based colorimetric analysis
Assay type: functional, organism-based
Measurement context: Tulahuen strain C2C4, L6, time 96 hrs
Measured metric: IC90 (nM)

[
  {
    "Molecule": "O=[N+]([O-])c1cn2c(n1)OC[C@H](OCc1ccc(-c3ccc(OC(F)(F)F)cc3Cl)cc1)C2",
    "Unit text": "nM",
    "Measured value": 1100
  },
  {
    "Molecule": "O=[N+]([O-])c1cn2c(n1)OC(COc1ccc(-c3ccc(F)cc3)nc1)CC2 (racemic)",
    "Unit text": "nM",
    "Measured value": 560
  },
  {
    "Molecule": "O=[N+]([O-])c1cn2c(n1)[S+]([O-])CC(OCc1ccc(COc3ccccc3)cc1)C2 (centres undefined)",
    "Unit text": "nM",
    "Measured value": 89
  },
  {
    "Molecule": "O=[N+]([O-])c1cn2c(n1)OC[C@@H](OCC#Cc1ccc(-c3ccc(OC(F)(F)F)cc3)cn1)C2",
    "Unit text": "nM",
    "Measured value": 990
  }
]

====

Test system: Trypanosoma cruzi
Protocol: Antitrypanosomal activity against Trypanosoma cruzi amastigotes assessed as inhibition of parasite growth at 10 ug/ml relative to control
Measured metric: inhibition at 10 µg/mL (%)

[
  {
    "Molecule": "O=[N+]([O-])c1cn2c(n1)S(=O)(=O)CC(OCc1ccc(COc3ccccc3)cc1)C2 (stereo not given)",
    "Target under test": "Trypanosoma cruzi",
    "Measured value": 95
  },
  {
    "Molecule": "O=[N+]([O-])c1cn2c(n1)[S+]([O-])CC(OCc1ccc(COc3ccccc3)cc1)C2 (stereo not given)",
    "Target under test": "Trypanosoma cruzi",
    "Measured value": 89
  },
  {
    "Molecule": "O=[N+]([O-])c1cn2c(n1)OC[C@@H](OCc1cccc(-c3cccc(OC(F)(F)F)c3)c1)C2",
    "Target under test": "Trypanosoma cruzi",
    "Measured value": 65
  },
  {
    "Molecule": "O=[N+]([O-])c1cn2c(n1)OC[C@@H](OCc1ccc(-c3ccc(C(F)(F)F)cc3Cl)cc1)C2",
    "Target under test": "Trypanosoma cruzi",
    "Measured value": 94
  },
  {
    "Molecule": "O=[N+]([O-])c1nc2n(n1)C[C@H](OCc1ccc(OCc3ccccc3)cc1)CO2",
    "Target under test": "Trypanosoma cruzi",
    "Measured value": 12
  }
]

====

# half-life at 1 h values compiled below
Protocol: Half life in human liver microsomes incubated for 60 mins
Measured metric: half-life at 1 h (min)

[
  {
    "Compound": "O=[N+]([O-])c1cn2c(n1)[S+]([O-])CC(OCc1ccc(COc3ccccc3)cc1)C2 (stereo not given)",
    "Cmp": "=",
    "Measured value": 156
  },
  {
    "Compound": "CC1(COCc2ccc(OCc3ccccc3)cc2)Cn2cc([N+](=O)[O-])nc2S1(=O)=O (stereo not given)",
    "Cmp": "=",
    "Measured value": 25
  },
  {
    "Compound": "O=[N+]([O-])c1cn2c(n1)OC[C@@H](OCC#Cc1ccc(-c3ccc(OC(F)(F)F)cc3)cn1)C2",
    "Cmp": ">",
    "Measured value": 250
  },
  {
    "Compound": "O=[N+]([O-])c1cn2c(n1)OC[C@@H](OCc1ccc(-c3ccc(C(F)(F)F)cc3Cl)cc1)C2",
    "Cmp": ">",
    "Measured value": 250
  },
  {
    "Compound": "O=[N+]([O-])c1cn2c(n1)S(=O)(=O)CC(OCc1ccc(COc3ccccc3)cc1)C2 (stereo not given)",
    "Cmp": "=",
    "Measured value": 103
  }
]

====

# concentration at 24 h values compiled below
Protocol: Plasma concentration in Swiss mouse at 50 mg/kg, po measured upto 24 hrs by LC-MS/MS analysis

[
  {
    "Structure notation": "O=[N+]([O-])c1cn2c(n1)OC[C@@H](OCc1ccc(-c3ccc(C(F)(F)F)cc3Cl)cc1)C2",
    "Unit text": "µM",
    "concentration at 24 h": 9.1
  },
  {
    "Structure notation": "O=[N+]([O-])c1cn2c(n1)OC[C@H](Oc1ccc(OC(F)(F)F)cc1)C2",
    "Unit text": "µM",
    "concentration at 24 h": 11
  }
]

====

# IC90 values compiled below
System: Trypanosoma cruzi
Protocol: Antitrypanosomal activity against Trypanosoma cruzi Tulahuen strain C2C4 amastigotes infected in rat L6 cells assessed as inhibition of parasite growth incubated for 96 hrs by chlorophenol red-fl-D-galactopyranoside based colorimetric analysis
Assay type: functional, organism-based
Measurement context: Tulahuen strain C2C4, L6, time 96 hrs

[
  {
    "Compound": "O=[N+]([O-])c1cn2c(n1)OC[C@@H](OCC#Cc1ccc(-c3ccc(C(F)(F)F)cc3)cn1)C2",
    "Cmp": "=",
    "IC90 (nM)": 590
  },
  {
    "Compound": "O=[N+]([O-])c1nc2n(n1)C[C@H](OCc1ccc(OCc3ccccc3)cc1)CO2",
    "Cmp": "=",
    "IC90 (nM)": 130
  },
  {
    "Compound": "O=[N+]([O-])c1cn2c(n1)OC(COc1ccc(-c3ccc(OC(F)(F)F)cc3)cn1)CC2 (stereo not drawn)",
    "Cmp": "=",
    "IC90 (nM)": 180
  },
  {
    "Compound": "O=[N+]([O-])c1cn2c(n1)S(=O)(=O)CC(OCc1ccc(COc3ccccc3)cc1)C2 (stereo not drawn)",
    "Cmp": "=",
    "IC90 (nM)": 440
  },
  {
    "Compound": "O=[N+]([O-])c1cn2c(n1)OC(COc1ccc(-c3ccc(F)nc3)cc1)CC2 (stereo not drawn)",
    "Cmp": "=",
    "IC90 (nM)": 44
  },
  {
    "Compound": "O=[N+]([O-])c1cn2c(n1)OC[C@@H](OCc1ccc(-c3ccc(C(F)(F)F)cc3Cl)cn1)C2",
    "Cmp": ">",
    "IC90 (nM)": 10000
  },
  {
    "Compound": "O=[N+]([O-])c1cn2c(n1)OC[C@@H](OCc1ccc(-c3ccc(C(F)(F)F)cc3Cl)cc1)C2",
    "Cmp": "=",
    "IC90 (nM)": 8000
  },
  {
    "Compound": "O=[N+]([O-])c1cn2c(n1)OC[C@@H](OCc1ccc(-c3ccc(OC(F)(F)F)cc3Cl)cc1)C2",
    "Cmp": ">",
    "IC90 (nM)": 10000
  },
  {
    "Compound": "O=[N+]([O-])c1cn2c(n1)OC(COc1cnc(-c3ccc(OC(F)(F)F)cc3)nc1)CC2 (stereo not drawn)",
    "Cmp": "=",
    "IC90 (nM)": 960
  },
  {
    "Compound": "CC1(COc2ccc(OC(F)(F)F)c(Cl)c2)CCn2cc([N+](=O)[O-])nc2O1 (stereo not drawn)",
    "Cmp": "=",
    "IC90 (nM)": 6500
  },
  {
    "Compound": "O=[N+]([O-])c1cn2c(n1)OC(COc1cnc(-c3ccc(OC(F)(F)F)cc3)cn1)CC2 (stereo not drawn)",
    "Cmp": "=",
    "IC90 (nM)": 6700
  },
  {
    "Compound": "O=[N+]([O-])c1cn2c(n1)OC[C@H](OCc1ccc(-c3ccc(C(F)(F)F)cc3Cl)cc1)C2",
    "Cmp": "=",
    "IC90 (nM)": 710
  },
  {
    "Compound": "O=[N+]([O-])c1cn2c(n1)OC[C@H](OCc1ccc(-c3ccc(OC(F)(F)F)cc3)cn1)C2",
    "Cmp": "=",
    "IC90 (nM)": 310
  },
  {
    "Compound": "O=[N+]([O-])c1cn2c(n1)OC[C@H](OCc1ccc(-c3ccc(C(F)(F)F)cc3Cl)cn1)C2",
    "Cmp": "=",
    "IC90 (nM)": 2900
  },
  {
    "Compound": "CC1(COc2ccc(OC(F)(F)F)c(F)c2)CCn2cc([N+](=O)[O-])nc2O1 (stereo not drawn)",
    "Cmp": "=",
    "IC90 (nM)": 1900
  },
  {
    "Compound": "CC1(COc2ccc(OC(F)(F)F)cc2Cl)CCn2cc([N+](=O)[O-])nc2O1 (stereo not drawn)",
    "Cmp": "=",
    "IC90 (nM)": 1300
  },
  {
    "Compound": "CC1(COc2ccc(OC(F)(F)F)cc2)CCn2cc([N+](=O)[O-])nc2O1 (stereo not drawn)",
    "Cmp": "=",
    "IC90 (nM)": 930
  },
  {
    "Compound": "CC1(COCc2ccc(OCc3ccccc3)cc2)Cn2cc([N+](=O)[O-])nc2S1(=O)=O (stereo not drawn)",
    "Cmp": "=",
    "IC90 (nM)": 240
  }
]
